Value source: the supplement of paper PMC9170038

Tested on: MS2 coat protein
method summary: apparent KD of MS2 coat protein; higher = weaker reporter binding
experimental parameters: Eterna round: R107; input ligand: arginine 13.2 mM
apparent KD of MS2 coat protein values, listed per item
Form field: result (number plus unit)

Below, each entry is followed by its recorded apparent KD of MS2 coat protein result.
GGGUGGUAGGCGGCCGCCACUGAUUUUCAUUUAUAGAUGACAUGAGGAUCACCCAUGUUUAUGUGCAGGACCGGGCCUGCUGUGG [aaaT] :: 102 nM
GGUGGCGUGACGGAUACCAGCCACCACCGCAAGACCACAUGAGGAUCACCCAUGUUGGGUGGCCCUUGGCAGCUGUCGUGCGGCG [#1 Same State - Theophylline B Attempt #19 (HarryS)] :: 15 nM
UGGGCUGGGUGCGUAAAGGGCCUGGCGCAUCGAGGACCGGUACGGCCGCCACUCGGCUGUACAUGAGGAUCACCCAUGUCAGGGU [#1 Same State - Tryptophan A Attempt #18 (HarryS)] :: 45.9 nM

Param readout= apparent KD of MS2 coat protein; system= MS2 coat protein; entry= AACAUGAGGAUCACCCAUGUAAUAUGGGAUACCAGAGACGAAAGUCUCCCUUGGCAGCCCAAGCUGCUCCAUACGAAAGUAUGGU [Theophylline A 16] ; returns value. 50.5 nM

Recorded apparent KD of MS2 coat protein for AUACAUGAGGAUCACCCAUGUUACACUGAAGGAGCGACAUGUUUGUCAGGUAGGUCGCAGUGAAGUUUAAUAAAUAGUUGAUCUU [#07 Same State - Arginine A] with MS2 coat protein, please? 37.6 nM

Reported apparent KD of MS2 coat protein for MS2 coat protein, given CAUCCUAGUACAUGAGGAUCACCCAUGUAUCGAGGACCGGUACGGCCGCCACUCGAAUGGCGGAUCGUUGAUCCUUUAGGAUGAA [Tryp A Ex t4] ? 16.5 nM

====

Tested on: MS2 coat protein
method summary: apparent KD of MS2 coat protein; designed switch direction (-1 OFF switch, 1 ON switch): -1; higher = weaker reporter binding
experimental parameters: input ligand: FMN 200 uM
Property: apparent KD of MS2 coat protein; scope: individual sequences
Number in nM, nothing else.

Below are worked cases with known answers.
AGCUAGUCAGGAUAUUCUAAUAAUUACAUGAGGAUCACCCAUGUGAAGGGACAAGGGUGUGAAGAAGGGACUAGCG [Omei Ex5 A3] (Eterna round: R97, puzzle: Exclusion 5) :: 358
GUCGUGCAGCUUUGCUGUACGAGUACAUGAGGAUCACCCAUGUAGGAUAUGGUACGCUUUGCGUGCUAGAAGGAUAUGUGUAGG [salish99_ExNG3_r04_501] (Eterna round: R96, puzzle: Exclusion NG 3) :: 49.3
UCAAAGUCAGGAUAUACAUGAGGAUCACCCAUGUAAAAUUUUAAUUUAAUUUGAAGGUGUAGAAGGGACAAACU [Ex3 #34] (Eterna round: R97, puzzle: Exclusion 3) :: 39.2
AAGGGUGCUUUCGGAACGACAUGAGGAUCACCCAUGUAGACUGAGGAUAUCUACUUCUAAGGACGGGAGAAGGCAGUGUAAUGU [Ex NG3 #70] (Eterna round: R96, puzzle: Exclusion NG 3) :: 44.5
AAGCCCUGAGGAUAUCCCAACUCGCACAUGAGGAUCACCCAUGUCCUCCUCCGGGCUUCGGGAGAAGGCAGGUCUC [Megrez-7.8] (Eterna round: R97, puzzle: Exclusion 5) :: 186
ACAAGAUCGGAAGGAUAUUGUACAUGAGGAUCACCCAUGUAAUAAAUGAGGAUCACGGAUGUAGACAAGAAGGUCCGGAUAAGA [Ostracism 4 - Jieux - Exclusion NG 2] (Eterna round: R96, puzzle: Exclusion NG 2) :: 45.6
GGGAGCAGACGGAGAUCCAACAUGAGGAUCACCCAUGUCUCCCAAGCUUUUUGCUUGUCUUAUCCUCCUCUGUUUCC [Design #9] (Eterna round: R97, puzzle: Sensor, turn-off variant 1) :: 17.2
AAUACAAGCUAUUGAUCCCACAUGAGGAUCACCCAUGUAUAUGCCGGUGACACCUGCAUGACGAUAGCUCGUCUUAU [Sensor-V1 #59] (Eterna round: R97, puzzle: Sensor, turn-off variant 1) :: 577

Would you kindly share the measured apparent KD of MS2 coat protein for CCGUCAUCAGGAUAUCCACAUCUCUACAUGAGGAUCACCCAUGUAAGCUUGGGUAAUAGCGGAGAAGGGAUAGACU [Eternabot (Original) Solution 20] (Eterna round: R97, puzzle: Exclusion 5) ? 78.2

Please give the measured apparent KD of MS2 coat protein for this sequence: GCAGCAAACCCAAUUAAAACCACAUGAGGAUCACCCAUGUCUCAGGAUAUGGUCUGGAUUACAGGCCAGAAGGGAGAAAGCUGC [Eli exng3 - 052] (Eterna round: R96, puzzle: Exclusion NG 3) 16.2

What apparent KD of MS2 coat protein value was documented for this sequence, UUGUAGUGAGGAUAUAUAUAGAGGUUUUAUUAAUUUUUAAAACUUGAGGAUCACCCAAGUAGAAGGCGCAAAGU [JR_Ex2_Sub071] (Eterna round: R97, puzzle: Exclusion 2) ? 41.5

Entry under review: GGUCAGACGGUAGGAUAUUCAUAUCGAGUGACCCUUUCAUAACAUGAGGAUCACCCAUGUCGGUGGGAGAAGGGCCGUACGGCG [salish99_ExNG02_R04_008] (Eterna round: R96, puzzle: Exclusion NG 2) . Reported apparent KD of MS2 coat protein? 41
